These measurements were taken from patent US4167570A.

Can you tell me LD50 at 336 h for the items I'm about to list?
experiment: acute toxicity, LD50 in the mouse after intravenous administration; settings: in vivo, i.v., NMRI-mice both sexes, deaths within 14 days, Litchfield and Wilcoxon
Where a name gives a salt, the structure may show the parent alone.
Give bare numbers, in mg/kg.

Worked cases, answers included:
>>> reported_measurement("CCN(CCCN1c2ccccc2N(C)C(=O)c2cccnc21)C(C)C [Y, hydrochloride]")
30
>>> reported_measurement("CCN(CC)CCCN1c2ccccc2N(C)C(=O)c2ccc(C)nc21.Cl")
15.4

Shift focus to the following entry.
Query: LD50 at 336 h; subject: CCN(CC)CCCN1c2cc(C)c(C)cc2N(C)C(=O)c2ccc(C)nc21.O=C(O)/C=C/C(=O)O
9.9
